Listed next: entries and their corresponding inhibition at 100 µg/mL.
biological target: H1N1 NA (A/California/04/2009) (Influenza A virus (A/California/04/2009(H1N1))); test: biochemical; conditions: read-out: % Inhibition ± SE H1N1 NA
Answer with a number only, understood to be in %.

COc1cc(/C=C/C(=O)c2ccc(O)cc2)ccc1OCc1ccccc1 = 2
O=C(/C=C/c1ccc(F)cc1)c1ccc(O)cc1 = 21
COc1cc(C(=O)/C=C/c2ccc(OCc3ccccc3)c(OC)c2)ccc1O = 1
O=C(/C=C/c1ccc([N+](=O)[O-])cc1)c1ccc(OC2CCCC2)cc1 = 5
O=C(/C=C/c1ccc([N+](=O)[O-])cc1)c1ccc(O)cc1 = 16

Entry O=C(/C=C/c1ccc(F)cc1)c1ccc(OCc2ccccc2)cc1 has what inhibition at 100 µg/mL?
2

Entry COc1cc(C=O)ccc1O [Vanillin, reference compound] has what inhibition at 100 µg/mL?
86

Entry CC(C)Oc1ccc(C(=O)/C=C/c2ccc(F)cc2)cc1 has what inhibition at 100 µg/mL?
5

Entry O=C(O)c1ccc(/C=C/C(=O)c2ccc(O)cc2)cc1 has what inhibition at 100 µg/mL?
19
